System: ATP;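 further: ATP exposure 15 min at 22 °C before imaging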
testDetails: switch fluorescence ratio, 500 uM ATP over buffer (Cy3 cluster intensity, sum of 5 cycles each) (fold (ratio)); higher = stronger signal-on switching upon ATP binding; sequences stand for … in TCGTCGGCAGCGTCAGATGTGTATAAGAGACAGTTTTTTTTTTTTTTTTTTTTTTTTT…TC
measurementConditions: aptamer strand: ATP DNA aptamer (quencher-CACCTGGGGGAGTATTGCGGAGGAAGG + anchor), 100 nM annealed; ATP concentration: 500 uM
Answer each item with its documented switch fluorescence ratio.

# return recorded switch fluorescence ratio for input "ATTTTGTAAT"
1

# return recorded switch fluorescence ratio for input "AGTTGAGAGG"
0.972

# return recorded switch fluorescence ratio for input "TTCATAACAA"
1.02

# return recorded switch fluorescence ratio for input "TAGGGATGTA"
1.01

# return recorded switch fluorescence ratio for input "TTTTTCACTT"
1

# return recorded switch fluorescence ratio for input "TGGGGGAACC"
1

# return recorded switch fluorescence ratio for input "ATGTTTTATG"
0.992

# return recorded switch fluorescence ratio for input "CAACGTATTT"
1.11

# return recorded switch fluorescence ratio for input "GGGGCTAGTG"
0.977

# return recorded switch fluorescence ratio for input "GGGGTAAACT"
1.01

# return recorded switch fluorescence ratio for input "AGGGCTGGGG"
0.973

# return recorded switch fluorescence ratio for input "ATGTAGGGTT"
1.04

# return recorded switch fluorescence ratio for input "GGATAGGGCG"
0.946

# return recorded switch fluorescence ratio for input "TATAACTCAT"
1.02

# return recorded switch fluorescence ratio for input "CGGGAGGACT"
0.989

# return recorded switch fluorescence ratio for input "ATATGCTGGT"
0.982

# return recorded switch fluorescence ratio for input "TCTTGGGGT"
1.06

# return recorded switch fluorescence ratio for input "TCTGCTTCCG"
1.03

# return recorded switch fluorescence ratio for input "GAGAGATTGT"
1

# return recorded switch fluorescence ratio for input "TTTGTTTTAG"
0.983

# return recorded switch fluorescence ratio for input "GAAGTGGGTG"
1.11

# return recorded switch fluorescence ratio for input "ATATTGTTTT"
1.02

# return recorded switch fluorescence ratio for input "AGGGGCTGGT"
0.997

# return recorded switch fluorescence ratio for input "GGCGGTAATG"
1.04

# return recorded switch fluorescence ratio for input "CTAGTCCTGA"
0.986

###

Tested on: ATP;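 further: ATP exposure 15 min at 22 °C before imaging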
testDetails: switch fluorescence ratio, 500 uM ATP over buffer (Cy3 cluster intensity, sum of 5 cycles each) (fold (ratio)); higher = stronger signal-on switching upon ATP binding; sequences stand for … in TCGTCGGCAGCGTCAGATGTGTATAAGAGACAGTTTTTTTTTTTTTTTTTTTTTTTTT…TC
measurementConditions: aptamer strand: ATP DNA aptamer (quencher-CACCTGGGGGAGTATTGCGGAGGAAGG + anchor), 100 nM annealed; ATP concentration: 500 uM
reportedProperty: switch fluorescence ratio
Give the figure only, with no unit attached.

# return recorded switch fluorescence ratio for input "TAAGCGGGGT"
1.01

# return recorded switch fluorescence ratio for input "AGTGCTAGGG"
1

# return recorded switch fluorescence ratio for input "CGGTCTATGC"
1.12

# return recorded switch fluorescence ratio for input "AATGGCGGGC"
1.01

# return recorded switch fluorescence ratio for input "CATTCTACGT"
1.04

# return recorded switch fluorescence ratio for input "TCTTTGATTA"
1.01

# return recorded switch fluorescence ratio for input "GTCCCCACAG"
1.1

# return recorded switch fluorescence ratio for input "ATTGTGGGGA"
0.985

# return recorded switch fluorescence ratio for input "CATATAATTC"
0.975

# return recorded switch fluorescence ratio for input "AGGCTCGGGG"
1.04

# return recorded switch fluorescence ratio for input "TTTTTCAATA"
1.01

###

System: ATP;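 further: ATP exposure 15 min at 22 °C before imaging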
testDetails: switch fluorescence ratio, 500 uM ATP over buffer (Cy3 cluster intensity, sum of 5 cycles each) (fold (ratio)); higher = stronger signal-on switching upon ATP binding; sequences stand for … in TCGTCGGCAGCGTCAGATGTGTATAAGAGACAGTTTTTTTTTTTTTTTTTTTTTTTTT…TC
measurementConditions: aptamer strand: ATP DNA aptamer (quencher-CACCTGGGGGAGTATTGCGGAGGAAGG + anchor), 100 nM annealed; ATP concentration: 500 uM
Answer each item with its documented switch fluorescence ratio.
Give the figure only, with no unit attached.

# return recorded switch fluorescence ratio for input "ATTTATTTTA"
1.01

# return recorded switch fluorescence ratio for input "TCTATAAGTT"
1.02

# return recorded switch fluorescence ratio for input "AGCGGAGTAT"
0.998

# return recorded switch fluorescence ratio for input "AATATTTTGT"
0.983

# return recorded switch fluorescence ratio for input "AAGTGTGGGC"
0.984

# return recorded switch fluorescence ratio for input "ATTAGCTTAG"
0.987

# return recorded switch fluorescence ratio for input "TAAATCGGGA"
0.993

# return recorded switch fluorescence ratio for input "AATAGTGGTA"
1

# return recorded switch fluorescence ratio for input "TACAGCAGTG"
1.02

# return recorded switch fluorescence ratio for input "AAAGTAGACA"
1.01

# return recorded switch fluorescence ratio for input "TGCATTAGAG"
1.02

# return recorded switch fluorescence ratio for input "TTAATTGGCC"
0.992

# return recorded switch fluorescence ratio for input "GCTAGGTCTA"
1.01

# return recorded switch fluorescence ratio for input "GAGAGCCGTT"
1

# return recorded switch fluorescence ratio for input "GAGCAACTGA"
1.02

# return recorded switch fluorescence ratio for input "CATGGTTCTG"
1.02

###

System: ATP;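 further: ATP exposure 15 min at 22 °C before imaging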
testDetails: switch fluorescence ratio, 500 uM ATP over buffer (Cy3 cluster intensity, sum of 5 cycles each) (fold (ratio)); higher = stronger signal-on switching upon ATP binding; sequences stand for … in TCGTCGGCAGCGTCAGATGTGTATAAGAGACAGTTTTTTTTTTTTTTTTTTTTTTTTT…TC
measurementConditions: aptamer strand: ATP DNA aptamer (quencher-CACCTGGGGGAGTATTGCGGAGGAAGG + anchor), 100 nM annealed; ATP concentration: 500 uM
Answer each item with its documented switch fluorescence ratio.
Give the figure only, with no unit attached.

# return recorded switch fluorescence ratio for input "TGTTTCGACG"
0.986

# return recorded switch fluorescence ratio for input "AGGGGTTTGC"
0.957

# return recorded switch fluorescence ratio for input "GCGGGGGAAT"
1.05

# return recorded switch fluorescence ratio for input "GTTGGTACGT"
1.01

# return recorded switch fluorescence ratio for input "AAGTGGTATT"
0.992

# return recorded switch fluorescence ratio for input "AGGTAGAGTG"
0.948

# return recorded switch fluorescence ratio for input "TTGGGGCGTT"
0.993

# return recorded switch fluorescence ratio for input "TGGCTCAGGC"
1

# return recorded switch fluorescence ratio for input "GGGAACAGCA"
1.03

# return recorded switch fluorescence ratio for input "TACGAGACGG"
1.09

# return recorded switch fluorescence ratio for input "TGGGATTCGG"
1.03

# return recorded switch fluorescence ratio for input "TTTGTTTAAG"
0.973

###

Test system: ATP;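 further: ATP exposure 15 min at 22 °C before imaging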
testDetails: switch fluorescence ratio, 500 uM ATP over buffer (Cy3 cluster intensity, sum of 5 cycles each) (fold (ratio)); higher = stronger signal-on switching upon ATP binding; sequences stand for … in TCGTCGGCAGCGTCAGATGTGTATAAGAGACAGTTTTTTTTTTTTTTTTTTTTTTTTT…TC
measurementConditions: aptamer strand: ATP DNA aptamer (quencher-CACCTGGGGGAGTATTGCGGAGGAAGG + anchor), 100 nM annealed; ATP concentration: 500 uM
Kind request: treat 1 as inclusive, so switch fluorescence ratio at 1 or higher is 1 (yes), anything lower is 0 (no).

Is reported switch fluorescence ratio greater than or equal to 1 here: "TGTTTTGACG"
1 (yes)

Is reported switch fluorescence ratio greater than or equal to 1 here: "AGTTCTGGCC"
1 (yes)

Is reported switch fluorescence ratio greater than or equal to 1 here: "TTCGATGCAT"
1 (yes)

Is reported switch fluorescence ratio greater than or equal to 1 here: "AAGTAAGGGG"
0 (no)

Is reported switch fluorescence ratio greater than or equal to 1 here: "TAGGGGAGAT"
1 (yes)

Is reported switch fluorescence ratio greater than or equal to 1 here: "ATAAGATGCC"
0 (no)

Is reported switch fluorescence ratio greater than or equal to 1 here: "CCGGCGCGTT"
1 (yes)

Is reported switch fluorescence ratio greater than or equal to 1 here: "TCGCTACTCG"
1 (yes)

Is reported switch fluorescence ratio greater than or equal to 1 here: "GCGTCTTTAC"
1 (yes)

Is reported switch fluorescence ratio greater than or equal to 1 here: "CTACTATAAT"
1 (yes)

Is reported switch fluorescence ratio greater than or equal to 1 here: "CGGGATTTAA"
1 (yes)

Is reported switch fluorescence ratio greater than or equal to 1 here: "GAAGCTAATC"
1 (yes)

Is reported switch fluorescence ratio greater than or equal to 1 here: "CACTGACTTA"
1 (yes)

Is reported switch fluorescence ratio greater than or equal to 1 here: "ACTAAGGGGA"
1 (yes)

Is reported switch fluorescence ratio greater than or equal to 1 here: "GATGTAATTT"
1 (yes)

Is reported switch fluorescence ratio greater than or equal to 1 here: "TTACCGGATA"
1 (yes)

Is reported switch fluorescence ratio greater than or equal to 1 here: "TAAATGGTTC"
0 (no)

Is reported switch fluorescence ratio greater than or equal to 1 here: "TCTTTTGCAT"
1 (yes)

Is reported switch fluorescence ratio greater than or equal to 1 here: "CCCTGGCAGC"
1 (yes)

Is reported switch fluorescence ratio greater than or equal to 1 here: "TCAGAGGATC"
0 (no)

Is reported switch fluorescence ratio greater than or equal to 1 here: "AAAATCATTG"
0 (no)

Is reported switch fluorescence ratio greater than or equal to 1 here: "ATGCAAATGC"
1 (yes)

Cited source for all entries: the supplement of paper PMC10126150
